Assay: Probe fluorescence ratio response to arachidonic acid relative to ADIFAB2
Assay type: binding
Details: arachidonic acid; response relative to ADIFAB2

# MOLECULE, DR/DR AA
records = [
    ("106S2, 72A (protein, listed as Rattus norvegicus, PEPTIDE (1)...(131) wild-type rat intestinal fatty acid binding protein) AFDGTWKVDRNENYEKFMEKMGINVVKRKLGAHDNLKLTITQEGNKFTVKESSNFRNIDVVFELGVDFAYSAADGTELTGTWTMEGNKLVGKFKRVDNGKELIAVSEISGNELIQTYTYEGVEAKRIFKKE", 0.32),
    ("117Y, 72A (protein, listed as Rattus norvegicus, PEPTIDE (1)...(131) wild-type rat intestinal fatty acid binding protein) AFDGTWKVDRNENYEKFMEKMGINVVKRKLGAHDNLKLTITQEGNKFTVKESSNFRNIDVVFELGVDFAYSAADGTELTGTWTMEGNKLVGKFKRVDNGKELIAVREISGNELIQTYTYEGVEAKRIFKKE", 1.35),
    ("126V, 72A (protein, listed as Rattus norvegicus, PEPTIDE (1)...(131) wild-type rat intestinal fatty acid binding protein) AFDGTWKVDRNENYEKFMEKMGINVVKRKLGAHDNLKLTITQEGNKFTVKESSNFRNIDVVFELGVDFAYSAADGTELTGTWTMEGNKLVGKFKRVDNGKELIAVREISGNELIQTYTYEGVEAKVIFKKE", 0.42),
    ("117C, 72A (protein, listed as Rattus norvegicus, PEPTIDE (1)...(131) wild-type rat intestinal fatty acid binding protein) AFDGTWKVDRNENYEKFMEKMGINVVKRKLGAHDNLKLTITQEGNKFTVKESSNFRNIDVVFELGVDFAYSAADGTELTGTWTMEGNKLVGKFKRVDNGKELIAVREISGNELIQTCTYEGVEAKRIFKKE", "−0.17"),
    ("115W, 72A (protein, listed as Rattus norvegicus, PEPTIDE (1)...(131) wild-type rat intestinal fatty acid binding protein) AFDGTWKVDRNENYEKFMEKMGINVVKRKLGAHDNLKLTITQEGNKFTVKESSNFRNIDVVFELGVDFAYSAADGTELTGTWTMEGNKLVGKFKRVDNGKELIAVREISGNELIWTYTYEGVEAKRIFKKE", 1.483),
    ("102P, 72A (protein, listed as Rattus norvegicus, PEPTIDE (1)...(131) wild-type rat intestinal fatty acid binding protein) AFDGTWKVDRNENYEKFMEKMGINVVKRKLGAHDNLKLTITQEGNKFTVKESSNFRNIDVVFELGVDFAYSAADGTELTGTWTMEGNKLVGKFKRVDNGKEPIAVREISGNELIQTYTYEGVEAKRIFKKE", 0.50),
]
